Test system: 628569-122-R-J1-PDC complex spheroid viability
assay_remarks: Anticancer human tumor 628569-122-R-J1-PDC patient-derived head and neck squamous carcinoma cell line growth inhibition [CLK]
test_context: second compound 1 µM; first compound 0.03 µM; stronger effect = lower value
Source text: A high-throughput screen of multi-cell type tumor spheroids was designed to identify active combinations of […] and targeted small molecules. Complex spheroids include a stromal component modeled by human endothelial cells (HUVEC) and fibroblasts modeled by human mesenchymal stem cells (MSCs). […] Compounds. […] If the clinical Cmax for an agent had not been determined, the highest concentration tested was 10 microM. […]
# strict inequality: viability, T/C < 10% yields true, everything else yields false

Prompt line: Please check: viability, T/C for NC(=O)C(=Cn1cnc(-c2cc(C(F)(F)F)cc(C(F)(F)F)c2)n1)c1cncnc1 + CNC(=O)c1ccc(Nc2nc(OC3CCCC3)c3c(-c4ccc5nc(C)oc5c4)c[nH]c3n2)c(OC)c1 , strictly under 10% or not?
Response line: false

Prompt line: Please check: viability, T/C for CC(C)CC(NC(=O)C(Cc1ccccc1)NC(=O)c1cnccn1)B(O)O (stereo unspecified) + CNC(=O)c1ccc(Nc2nc(OC3CCCC3)c3c(-c4ccc5nc(C)oc5c4)c[nH]c3n2)c(OC)c1 , strictly under 10% or not?
Response line: false

Prompt line: Please check: viability, T/C for CC(C)CC(NC(=O)C(Cc1ccccc1)NC(=O)c1cnccn1)B(O)O (stereo unspecified) + CN1CCN(c2cc(C(=O)Nc3cc4cc(-c5cnn(C)c5)ccc4cn3)ccn2)CC1 , strictly under 10% or not?
Response line: true

Prompt line: Please check: viability, T/C for NC(=O)C(=Cn1cnc(-c2cc(C(F)(F)F)cc(C(F)(F)F)c2)n1)c1cncnc1 + CN1CCN(c2cc(C(=O)Nc3cc4cc(-c5cnn(C)c5)ccc4cn3)ccn2)CC1 , strictly under 10% or not?
Response line: true

Prompt line: Please check: viability, T/C for C=CC(=O)Nc1cc(Nc2nccc(-c3cn(C)c4ccccc34)n2)c(OC)cc1N(C)CCN(C)C + CN1CCN(c2cc(C(=O)Nc3cc4cc(-c5cnn(C)c5)ccc4cn3)ccn2)CC1 , strictly under 10% or not?
Response line: true

Prompt line: Please check: viability, T/C for C=CC(=O)Nc1cc(Nc2nccc(-c3cn(C)c4ccccc34)n2)c(OC)cc1N(C)CCN(C)C + CNC(=O)c1ccc(Nc2nc(OC3CCCC3)c3c(-c4ccc5nc(C)oc5c4)c[nH]c3n2)c(OC)c1 , strictly under 10% or not?
Response line: false

* * *

Test system: 628569-122-R-J1-PDC complex spheroid viability
assay_remarks: Anticancer human tumor 628569-122-R-J1-PDC cell line growth inhibition [CLK];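 also: spheroids exposed to agents for seven days before readout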
test_context: curve of first compound; second compound 0.316 µM
Provide the reported IC50 of each item.

Prompt line: Need IC50 of CCc1c2c(nc3ccc(O)cc13)-c1cc3c(c(=O)n1C2)COC(=O)[C@]3(O)CC + CN1CCN(c2cc(C(=O)Nc3cc4cc(-c5cnn(C)c5)ccc4cn3)ccn2)CC1 , thanks.
Response line: < 3.16 nM

Prompt line: Need IC50 of C=CC(=O)N1CCN(c2nc(=O)n(-c3c(C)ccnc3C(C)C)c3nc(-c4c(O)cccc4F)c(F)cc23)C(C)C1 (stereo not drawn) + CN1CCN(c2cc(C(=O)Nc3cc4cc(-c5cnn(C)c5)ccc4cn3)ccn2)CC1 , thanks.
Response line: < 31.6 nM

Prompt line: Need IC50 of COc1ccc([C@@H](O)c2cc(-c3ncnc4cc(N5CCOCC5)ccc34)c(F)cc2Cl)nn1 + CN1CCN(c2cc(C(=O)Nc3cc4cc(-c5cnn(C)c5)ccc4cn3)ccn2)CC1 , thanks.
Response line: < 31.6 nM

* * *

Test system: 628569-122-R-J1-PDC complex spheroid viability
assay_remarks: Anticancer human tumor 628569-122-R-J1-PDC cell line growth inhibition [CLK]; active = viability on the fitted dose curve at most 10% of control; inactive = the rest;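 also: spheroids exposed to agents for seven days before readout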
test_context: second compound 3.16 µM; first compound 0.0949 µM
Your reply should match one of these outcome classes. y (active), n (inactive)

Prompt line: GET /call?item= C=CC(=O)Nc1cc(Nc2nccc(-c3cn(C)c4ccccc34)n2)c(OC)cc1N(C)CCN(C)C + CN1CCN(c2cc(C(=O)Nc3cc4cc(-c5cnn(C)c5)ccc4cn3)ccn2)CC1 returns the recorded outcome of this test.
Response line: y

Prompt line: GET /call?item= CC(C)CC(NC(=O)C(Cc1ccccc1)NC(=O)c1cnccn1)B(O)O (stereo unspecified) + CNC(=O)c1ccc(Nc2nc(OC3CCCC3)c3c(-c4ccc5nc(C)oc5c4)c[nH]c3n2)c(OC)c1 returns the recorded outcome of this test.
Response line: n

Prompt line: GET /call?item= NC(=O)C(=Cn1cnc(-c2cc(C(F)(F)F)cc(C(F)(F)F)c2)n1)c1cncnc1 + CNC(=O)c1ccc(Nc2nc(OC3CCCC3)c3c(-c4ccc5nc(C)oc5c4)c[nH]c3n2)c(OC)c1 returns the recorded outcome of this test.
Response line: n

Prompt line: GET /call?item= CC(C)CC(NC(=O)C(Cc1ccccc1)NC(=O)c1cnccn1)B(O)O (stereo unspecified) + CN1CCN(c2cc(C(=O)Nc3cc4cc(-c5cnn(C)c5)ccc4cn3)ccn2)CC1 returns the recorded outcome of this test.
Response line: y

Prompt line: GET /call?item= NC(=O)C(=Cn1cnc(-c2cc(C(F)(F)F)cc(C(F)(F)F)c2)n1)c1cncnc1 + CN1CCN(c2cc(C(=O)Nc3cc4cc(-c5cnn(C)c5)ccc4cn3)ccn2)CC1 returns the recorded outcome of this test.
Response line: y

Prompt line: GET /call?item= C=CC(=O)Nc1cc(Nc2nccc(-c3cn(C)c4ccccc34)n2)c(OC)cc1N(C)CCN(C)C + CNC(=O)c1ccc(Nc2nc(OC3CCCC3)c3c(-c4ccc5nc(C)oc5c4)c[nH]c3n2)c(OC)c1 returns the recorded outcome of this test.
Response line: n

* * *

Tested on: 628569-122-R-J1-PDC complex spheroid viability
assay_remarks: Anticancer human tumor 628569-122-R-J1-PDC cell line growth inhibition [CLK]; active = viability on the fitted dose curve at most 10% of control; inactive = the rest;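 also: spheroids exposed to agents for seven days before readout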
test_context: second compound 3.16 µM; first compound 3.16 µM
Your reply should match one of these outcome classes. active, inactive

Prompt line: GET /call?item= O=C(c1cc(Cc2n[nH]c(=O)c3ccccc23)ccc1F)N1CCN(C(=O)C2CC2)CC1 + CNC(=O)c1ccc(Nc2nc(OC3CCCC3)c3c(-c4ccc5nc(C)oc5c4)c[nH]c3n2)c(OC)c1 returns the recorded outcome of this test.
Response line: inactive

Prompt line: GET /call?item= C#Cc1c(F)ccc2cc(O)cc(-c3ncc4c(N5CC6CCC(C5)N6)nc(OCC56CCCN5CC(F)C6)nc4c3F)c12 (stereo not given) + CNC(=O)c1ccc(Nc2nc(OC3CCCC3)c3c(-c4ccc5nc(C)oc5c4)c[nH]c3n2)c(OC)c1 returns the recorded outcome of this test.
Response line: inactive

Prompt line: GET /call?item= C#Cc1c(F)ccc2cc(O)cc(-c3ncc4c(N5CC6CCC(C5)N6)nc(OCC56CCCN5CC(F)C6)nc4c3F)c12 (stereo not given) + CN1CCN(c2cc(C(=O)Nc3cc4cc(-c5cnn(C)c5)ccc4cn3)ccn2)CC1 returns the recorded outcome of this test.
Response line: active

Prompt line: GET /call?item= Nc1ccccc1NC(=O)c1ccc(CNC(=O)OCc2cccnc2)cc1 + CN1CCN(c2cc(C(=O)Nc3cc4cc(-c5cnn(C)c5)ccc4cn3)ccn2)CC1 returns the recorded outcome of this test.
Response line: active

Prompt line: GET /call?item= COc1ccc([C@@H](O)c2cc(-c3ncnc4cc(N5CCOCC5)ccc34)c(F)cc2Cl)nn1 + CN1CCN(c2cc(C(=O)Nc3cc4cc(-c5cnn(C)c5)ccc4cn3)ccn2)CC1 returns the recorded outcome of this test.
Response line: active

Prompt line: GET /call?item= CC(CO)NC(=O)c1cc(-c2ccc(Cl)cc2)nn(-c2cnn(C)c2)c1=O (stereo not given) + CN1CCN(c2cc(C(=O)Nc3cc4cc(-c5cnn(C)c5)ccc4cn3)ccn2)CC1 returns the recorded outcome of this test.
Response line: active

Prompt line: GET /call?item= CC1COCCN1c1cc(C2(S(C)(=N)=O)CC2)nc(-c2ccnc3[nH]ccc23)n1 (stereo not given) + CNC(=O)c1ccc(Nc2nc(OC3CCCC3)c3c(-c4ccc5nc(C)oc5c4)c[nH]c3n2)c(OC)c1 returns the recorded outcome of this test.
Response line: inactive

Prompt line: GET /call?item= COc1cccc2c1C(=O)c1c(O)c3c(c(O)c1C2=O)CC(O)(C(=O)CO)CC3OC1CC(N)C(O)C(C)O1 (stereo not given) + CN1CCN(c2cc(C(=O)Nc3cc4cc(-c5cnn(C)c5)ccc4cn3)ccn2)CC1 returns the recorded outcome of this test.
Response line: active

Prompt line: GET /call?item= COc1ccc([C@@H](O)c2cc(-c3ncnc4cc(N5CCOCC5)ccc34)c(F)cc2Cl)nn1 + CNC(=O)c1ccc(Nc2nc(OC3CCCC3)c3c(-c4ccc5nc(C)oc5c4)c[nH]c3n2)c(OC)c1 returns the recorded outcome of this test.
Response line: inactive

Prompt line: GET /call?item= CCCS(=O)(=O)Nc1ccc(F)c(C(=O)c2c[nH]c3ncc(-c4ccc(Cl)cc4)cc23)c1F + CN1CCN(c2cc(C(=O)Nc3cc4cc(-c5cnn(C)c5)ccc4cn3)ccn2)CC1 returns the recorded outcome of this test.
Response line: active

Sourced from PubChem BioAssay AID2060611
